- System: laser-induced hypertensive monkeys
- experiment summary: Intraocular pressure reduction in laser-induced hypertensive monkeys
- Assay type: in vivo
- stated conditions: change from baseline
quantity name: IOP

CCCCCC(=O)c1ccc([C@H]2C(=O)C[C@@H](Cl)[C@@H]2C/C=C\CCCC(=O)OCCN2CCOCC2)cc1: decreases from baseline
CCCCCC(=O)c1ccc([C@H]2C(O)C[C@@H](Cl)[C@@H]2C/C=C\CCCC(=O)OCCN2CCOCC2)cc1 (stereo partly shown): decreases from baseline
CCCCCC(O)c1ccc([C@H]2C(=O)C[C@@H](Cl)[C@@H]2C/C=C\CCCC(=O)OCCN2CCOCC2)cc1 (stereo partly shown): decreases from baseline
CCCCCC(O)c1ccc([C@H]2C(O)C[C@@H](Cl)[C@@H]2C/C=C\CCCC(=O)OCCN2CCOCC2)cc1 (stereo partly shown): decreases from baseline
